# protocol_details: amyloid nucleation score (Sup35N fusion, yeast selection) (log enrichment); library NNK1; higher = more nucleation; inactive = no reads after selection;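 further: zero at mode of non-aggregating sequences after 7 days selection at 30°C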

seq_string: LSVVSWICRFDALQGHSCVK
amyloid nucleation score: -0.561

seq_string: VFVHFVSQWDFEATWT
amyloid nucleation score: 0.27

seq_string: IIFELKGLPLKNGMRGLKPL
amyloid nucleation score: -0.579

seq_string: FHRNHRINNRMSMAYSC
amyloid nucleation score: 0.059

seq_string: SSPPDNTKSKATLKALE
amyloid nucleation score: -1.5

seq_string: MQLTFAVKLGENRE
amyloid nucleation score: 2.77

seq_string: NFCVSVVFP
amyloid nucleation score: 1.84

seq_string: FFILRNQRPIC
amyloid nucleation score: 1.76

seq_string: SLAWSRMRCKFWSVSPSAFP
amyloid nucleation score: -0.352

seq_string: PLLQKSWIRALSFFVNHTS
amyloid nucleation score: 0.126

seq_string: SWISCASGFFYFWAIF
amyloid nucleation score: -0.739

seq_string: VRDKSGPYYSSV
amyloid nucleation score: 0.705

seq_string: FNRNNMKYQYFLKRIYMNW
amyloid nucleation score: -0.338

seq_string: LNHCVNMLRGRCGVPLLSVV
amyloid nucleation score: 0.551

seq_string: LVLSSPRHDMSCSYAHFNMN
amyloid nucleation score: 1.38

seq_string: VWRGRGCNHLYVMEEKLVGV
amyloid nucleation score: 0.623

seq_string: MGLMIMIFWWEDM
amyloid nucleation score: -0.82

seq_string: RNVGFLFSKRDQPWLKSPGD
amyloid nucleation score: -0.983

seq_string: VSLFLYISLSLRIVRRYVRV
amyloid nucleation score: 0.263

seq_string: GWLLYDSPSRFTYC
amyloid nucleation score: -0.531

seq_string: IYARNIRRLTRFPDLLDLVM
amyloid nucleation score: 1.47

seq_string: RRLNCLILFKVVLLATIFCI
amyloid nucleation score: -1.42

seq_string: CARNNHELVNYFKAFIPVVA
amyloid nucleation score: 0.751

seq_string: NHPTRPLTTQLGLAAQAKSG
amyloid nucleation score: -0.153

seq_string: AIFNLVSSL
amyloid nucleation score: -0.792

seq_string: TRWLILWNLAGPTGCYFRIL
amyloid nucleation score: 0.063

seq_string: WNDRSGDVSLPCS
amyloid nucleation score: 0.027

seq_string: CFCKGGPVVTRMWEGIYPC
amyloid nucleation score: -0.014

seq_string: YEPDELTWSHCTELTEALML
amyloid nucleation score: -0.433

seq_string: VIGVGKMLGNNHYPLSDQGL
amyloid nucleation score: -0.05
